Test system: Saccharomyces cerevisiae;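 note: PSI is a weighted mean of sequencing reads over stability bins, variants kept only with over 10 reads, mCherry proximal and sfGFP distal, peptide attached via GGGS linker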
Assay: protein stability index of tFT-peptide fusion (C-terminal peptide) (PSI (0-1 scale)); higher = more stable (slower turnover)
Details: genetic background: doa10 deletion; temperature: 30 C
Label Criterion not met if protein stability index falls below 0.2; label Criterion met in every other case.

Reference set (3 entries):
residue.codes: SSAPTIVIWRFS
class: Criterion met
//
residue.codes: LGVVVGGVRGVG
class: Criterion met
//
residue.codes: FCFCLVLRVFLG
class: Criterion not met

Q. Determine whether this sequence has protein stability index no lower than 0.2: VVISRVLAIRLL
A. Criterion not met

Q. # repeat for FFILVFFSLLST
A. Criterion met

Q. # repeat for YYFFLTFLCYVF
A. Criterion not met

Q. # repeat for GLFVGCWVFLVL
A. Criterion met

Source of measurements: the supplement of paper PMC10724198
